- Test system: K4 kissing-loop RNA reporter;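 note: bound reporter read as fluorescence of individual clusters on recovered sequencing chips by microscopy, with normalized cluster intensities fitted with a binding model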
- assaySummary: apparent KD of K4 kissing-loop reporter; higher = weaker reporter binding
- particulars: Eterna round: R107; input ligand: FMN 200 uM
Values of apparent KD of K4 kissing-loop reporter greater than or equal to 300 nM map to T; values below map to F.

biosequence	groupLabel
UAAGAAUAAGUAGCAGUGAUGUUGCUACUACGAGGACCGGUACGGCCGCCACUCGAGUCCUCGAAACAUCACUGAACGAGGAAUA [(H,1)-(H,2)-(Trp1)-(Trp2)-(T)'-(H)'-(T)'']	F
GCAUCGAUGGCAGGAUAUAGGUUCGUGGAGUGAUGUUCCAUAGCCCGAGUGAUGUUCGUUAUCCGCCUAGAAGGGCCGUGGAUGC [whbob_Ex_FMNB__2th215]	F
AUUCUUAUAAUAACACUAUAUACAACUGAAGGAGCGACAAUAAAGUCAGGUAGGUCGCAGAAUAAAUGAGUGAUGUUCAUUUUUA [JR_ExcArginiA_Sub011]	F
UUGAGCCGGACCGAAGUCCGGCUCUGCGAGCGAGGACCGGUACGGCCGCCACUCGGUGCAGUGAUGUUGCAUGGCCGCAAGGCCG [#2 Exclusion - Tryptophan A Attempt #8 (HarryS)]	T
UGUCAUUGGUCGGCCGCCACUUCGUGUGGAGUGAUGUUUUGUAGGUUGUGUUGAAAGGUAUGGUGAAGGACCGGGACCGAUGACU [FiskerMod 20 - Jieux - Same State - Tryptophan B]	T
UCUGUACCGGGAAGGAGCGUGAAUGAGAAUGGAUAUAGUGAUGUUAUGUAUACGAACGAAUCGCAGGUAGGUCGCCCGGAUCCCU [SSArgB.aA]	T
